Molecular target: Prostaglandin D2 receptor 2 (Homo sapiens) (UniProt Q9Y5Y4)
Sequence (Q9Y5Y4 whole entry): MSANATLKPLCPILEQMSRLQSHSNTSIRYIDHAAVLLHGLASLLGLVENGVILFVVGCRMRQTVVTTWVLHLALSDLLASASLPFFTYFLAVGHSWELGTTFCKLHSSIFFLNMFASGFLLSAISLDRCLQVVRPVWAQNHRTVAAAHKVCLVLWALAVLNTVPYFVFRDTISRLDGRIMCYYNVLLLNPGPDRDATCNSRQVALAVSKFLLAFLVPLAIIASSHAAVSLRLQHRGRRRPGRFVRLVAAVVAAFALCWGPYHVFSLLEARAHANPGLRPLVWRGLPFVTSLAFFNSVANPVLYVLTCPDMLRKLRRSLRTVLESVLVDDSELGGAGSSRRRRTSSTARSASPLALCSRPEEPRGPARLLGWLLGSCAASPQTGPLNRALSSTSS
Assay: Binding affinity to CRTh2 receptor (unknown origin) overexpressed in CHOK1 cell membranes assessed as dissociation half life at 10 times IC50 concentration preincubated for 1 hr with 0.1 nM to 100 uM PGD2 and [35S]-GTPgammaS by liquid scintillation counting analysis
Format: functional
Details: CHO-K1
Field: T1/2. Provide a value for each of the compounds that follow.
Return type: number; implicit unit h.

Documented T1/2 of `CCN(Cc1cc(C(F)(F)F)ccc1-n1cc(CC(=O)O)c2ccccc21)C(=O)C1CC1` : 2.5

Documented T1/2 of `CCN(Cc1cc(C(F)(F)F)ccc1-n1cc(CC(=O)O)c2ccc(C(F)F)nc21)C(=O)C1CC1` : 29

Documented T1/2 of `CCN(Cc1cc(C(F)(F)F)ccc1-c1nn(CC(=O)O)c2ccc(F)c(Cl)c12)C(=O)C1CC1` : 3.3

Documented T1/2 of `CCN(Cc1cc(C(F)(F)F)ccc1-c1nn(CC(=O)O)c2cccc(C)c12)C(=O)C1CC1` : 2.3

Documented T1/2 of `CCN(Cc1cc(C(F)(F)F)ccc1-c1nn(CC(=O)O)c2ccc(F)cc12)C(=O)C1CC1` : 1.4

Documented T1/2 of `CCN(Cc1ccccc1-n1cc(CC(=O)O)c2ccc(C)nc21)C(=O)C1CC1` : 8.8
